Origin of measurements: the supplement of paper PMC9170038

Tested on: MS2 coat protein
protocolText: apparent KD of MS2 coat protein; higher = weaker reporter binding
recordedConditions: Eterna round: R107; input ligand: theophylline 2 mM
Classification field: enter yes for apparent KD of MS2 coat protein values not below 0.03 µM, no for values below it.

CAGUCUCUAGCGGCCGCCACUGUUCUGCUGGUGCUGCUGAACGAACAUGAGGAUCACCCAUGUCUCAGGACCGGGCUUCAGACUC [theeternabot_sameState_MS2_Trp_B_44] :: yes
ACAGGUACGCCUAUUAAAAUAAAACACCUACGAGGACCGGUACGGCCGCCACUCGGGUGACAUGAGGAUCACCCAUGUGGCUAAA [Ceeron] :: yes
UGAUGGUUCGGAAGGAGCGUGUAAGAACAAGAACAUGAGGAUCACCCAUGUAUUAAUUUAACACAGGUAGGUCGCCGGGUUAUUG [11.J] :: no
UUGGCACGGACGGCCGCCACUCUUUCACAUGAGGAUCACCCAUGUUAUCUAGUCCUCAGCAGAAAGAGGACCGGGUCGGAGUUGG [theeternabot_exclusion_MS2_Trp_B_13] :: yes
GAUAUGGAAACAUGUCAGAUCCUUACCGGUCGAGGACCGGUACGGCCGCCACUCGGAAAUAUUGUACAUGAGGAUCACCCAUGUA [Ex Tryptophan A 18] :: no
GACCGAUUAUAGUGCGAUUCUCUUGUGGAAGGAGCGCAGAGGACUGCAGGUAGGUCGCCACAUGAGGAUCACCCAUGUCAGGAUA [Esxebiat] :: yes
UACUUGCUGACGGCCGCCACUAGAACAUGAGGAUCACCCAUGUACCCGGUCCUAAUCCUCAUGACUAGGACCGGGUCAGCAAGAU [(Trp1)-(Ms2)-(T)'-(M)'-(Trp2)_Design2] :: yes
AUAAAUAAUAAAUAUAAUAAAGUGGGUGAACGAGGACCGGUACGGCCGCCACUCGGACAUGAGGAUCACCCAUGUCCAUGUGAAA [AstrosExtTry#3] :: no
GGUCUCUGGAGCGAUACCAGCUUAAGUGUACUGGCCAGGUACAUGAGGAUCACCCAUGUAAGCCCUUGGCAGCGCUCCAGAGACC [#1 Exclusion - Theophylline B Attempt #14 (HarryS)] :: yes
ACGCGCAGCAGAAGGAGCGUCUUAAUUCUACAUGAGGAUCACCCAUGUUUACAUUGGAUAUGACAGGUAGGUCGCUGGUGUGCGA [#06 Same State - Arginine B] :: no
ACAUGAGGAUCACCCAUGUGCAGAACGGAUACCAGCGUGCUGGUACGCCCUUGGCAGCCGGACAUGAGGAUCACCCAUGUGUGGA [Exclusion Theophylline A GF28] :: yes
